meta.source: PubChem BioAssay AID256

Entries and their T/C values follow.
System: CD2F1 mice, L1210 leukemia ip, survival T/C
test-details: NCI In Vivo Anticancer Drug Screen. Data for tumor model L1210 Leukemia (intraperitoneal) in CD2F1 (CDF1) mice
condition-info: endpoint: mean survival time; dose: 25.0 mg/kg/injection; schedule: Q04DX003 (ip); vehicle: saline with Tween-80; higher = longer survival
Toxic doses and inconclusive results are not listed.
result-type: T/C

compound | result-type | value-observed
c1ccc2c(NC3=NCCO3)c3ccccc3nc2c1 | T/C | 96 % of control
[N-]=[N+]=NC1=C(c2ccccc2)C(=O)C=C(c2ccccc2)C1=O | T/C | 94 % of control
N#CC(C#N)=C1Cc2ccccc2C1 | T/C | 100 % of control
C1CCCCCC2=C(CCCC1)CCCO2 | T/C | 86 % of control
S=C(S)OCc1ccccc1.[Pt] | T/C | 102 % of control
CC12C(=O)OC(=O)C1(C)C1OC2C(Br)C1Br (configuration not stated) | T/C | 96 % of control
O=[N+]([O-])c1ccc(N/N=C/C(Br)(Br)Br)c([N+](=O)[O-])c1 | T/C | 102 % of control
C1N2CN3CN1CN(C2)C3.[Cl][Pt][Cl] | T/C | 123 % of control
CC(C(=O)c1ccccc1)C(N[N+](C)(C)C)c1ccccc1 (configuration not stated) | T/C | 96 % of control
C=COCCN1CCN(CCCN2c3ccccc3Sc3ccc(C(F)(F)F)cc32)CC1 | T/C | 113 % of control
CCN(CC)Cc1ccc(Nc2cc(C)nc(/N=C(\N)Nc3ccc(Cl)c(Cl)c3)n2)cc1 | T/C | 95 % of control
CC(=O)c1cc2ccccc2o1 | T/C | 101 % of control

###

System: CD2F1 mice, L1210 leukemia ip, survival T/C
test-details: NCI In Vivo Anticancer Drug Screen. Data for tumor model L1210 Leukemia (intraperitoneal) in CD2F1 (CDF1) mice
condition-info: endpoint: mean survival time; dose: 100.0 mg/kg/injection; schedule: Q04DX003 (ip); vehicle: saline with Tween-80; higher = longer survival
Toxic doses and inconclusive results are not listed.

compound | T/C
CCCCNCC(C)C(=O)OC (configuration not stated) | 98 % of control
CN1CCCC1CCNc1nc(C(Cl)(Cl)Cl)nc2cc(Cl)ccc12 (configuration not stated) | 95 % of control
O=C(Nc1ccc(Nc2ccccc2)cc1)Nc1cc([N+](=O)[O-])ccc1Cl | 87 % of control
O=C(O)CCNc1ccc2c(c1)B(O)OC2 | 98 % of control
Cc1c2cnccc2c(C)c2c1c1ccccc1n2CCCCCCNCc1ccccc1 | 95 % of control
O=S(=O)(Nc1ccccn1)c1ccc(Cl)cc1 | 91 % of control
O=C1CSC(c2ccccc2)N1 (configuration not stated) | 100 % of control
CC(SCc1ccccc1)C(NC(=O)c1ccccc1)C(=O)O (configuration not stated) | 98 % of control
COCC(O)CN1CCN(c2ccccc2C)CC1 (configuration not stated) | 93 % of control
O=C1CSC(=S)N1/N=C/c1ccc(Cl)c([N+](=O)[O-])c1 | 92 % of control
O=c1c(Cl)cc(Cl)cn1S(=O)(=O)c1ccc([N+](=O)[O-])cc1 | 102 % of control
O=C1CCCC(=O)N1CCCCCCN1C(=O)CCCC1=O | 100 % of control

###

Test system: CD2F1 mice, L1210 leukemia ip, survival T/C
test-details: NCI In Vivo Anticancer Drug Screen. Data for tumor model L1210 Leukemia (intraperitoneal) in CD2F1 (CDF1) mice
condition-info: endpoint: mean survival time; dose: 100.0 mg/kg/injection; schedule: Q01DX009 (ip); vehicle: saline with Tween-80; higher = longer survival
Description: The antitumor activity of compounds was measured in mice bearing transplantable tumors. Survival or tumor size were measured and the results are expressed as the measurement made in the treated group (T) divided by the measurement made in the vehicle treated control group (C). The tumor model used in this assay is L1210 Leukemia (intraperitoneal) in CD2F1 (CDF1) mice
Toxic doses and inconclusive results are not listed.
result-type: T/C

compound | experimental-system | value-observed
N#CCCOc1ccc(Cl)cc1 | CD2F1 mice, L1210 leukemia ip, survival T/C | 97 % of control
COC1OC(CN2C(=O)c3ccccc3C2=O)C2OC(C)(C)OC12 (configuration not stated) | CD2F1 mice, L1210 leukemia ip, survival T/C | 98 % of control
CCNC(=S)Nc1ccccc1 | CD2F1 mice, L1210 leukemia ip, survival T/C | 100 % of control
Nc1ccc2c(S(=O)(=O)O)ccc(O)c2c1 | CD2F1 mice, L1210 leukemia ip, survival T/C | 100 % of control
Nc1cc2c3c(cccc3c1)C(=O)N(CCN1CCCC1)C2=O | CD2F1 mice, L1210 leukemia ip, survival T/C | 86 % of control
CCc1ccc2ccccc2c1N | CD2F1 mice, L1210 leukemia ip, survival T/C | 110 % of control
Cc1ccc(S(=O)(=O)OCC(OS(=O)(=O)c2ccc(C)cc2)C2OC3OC(C)(C)OC3C2OS(=O)(=O)c2ccc(C)cc2)cc1 (configuration not stated) | CD2F1 mice, L1210 leukemia ip, survival T/C | 103 % of control

###

// reported T/C for each item listed
Tested on: CD2F1 mice, L1210 leukemia ip, survival T/C
test-details: NCI In Vivo Anticancer Drug Screen. Data for tumor model L1210 Leukemia (intraperitoneal) in CD2F1 (CDF1) mice
condition-info: endpoint: mean survival time; dose: 200.0 mg/kg/injection; schedule: Q01DX001 (ip); vehicle: saline with Tween-80; higher = longer survival
Toxic doses and inconclusive results are not listed.

compound | T/C
COC1OC(CCl)C(Cl)C(OC)C1OC (stereo not drawn) | 91 % of control
OC1(C#CCC2(O)CCCCC2)CCCCC1 | 91 % of control
C=CCCCCCCCCC(=O)NC(C)COC (stereo not drawn) | 98 % of control
CC(=O)CC(=O)c1ccccc1.CC(=O)CC(=O)c1ccccc1.[Cl][Sn][Cl] | 100 % of control
O=C(NCCN=Cc1ccccc1)c1ccccc1 | 101 % of control
CCOC(=N)c1ccccc1 | 97 % of control
O/N=C1/C2CCC(C2)C1C(O)(C(F)(F)F)C(F)(F)F (stereo not drawn) | 92 % of control
CC(C)(C(=O)O)C(C)(C)C(=O)O | 98 % of control
NC(Cc1c[nH]c2ccccc12)C(=O)O (stereo not drawn) | 101 % of control
O=C(NCCNC(c1ccccc1)C(NCCNC(=O)c1ccccc1)c1ccccc1)c1ccccc1 (stereo not drawn) | 96 % of control
CCN(CC)Cc1cc(Nc2ncnc3[nH]c(C)c(C)c23)ccc1O | 100 % of control
CCOc1ccc(-n2c(=O)c(N=Nc3ccccc3)c(O)n(-c3ccccc3OC)c2=S)cc1 | 89 % of control
COc1ccc2c(c1O)-c1c(OC)c(OC)cc3c1C(C2)N(C)CC3 (stereo not drawn) | 97 % of control
CCN=Cc1ccccc1O.CCN=Cc1ccccc1O.[Pd] | 95 % of control
O=C(O)CC1(c2ccccc2)OC(=O)c2ccccc21 (stereo not drawn) | 94 % of control
O=C(/C=C/c1ccccc1)NC(=S)NCc1ccccc1Cl | 92 % of control
CN1c2ccccc2C2CC(CC#N)CC(=O)C21 (stereo not drawn) | 93 % of control
CN(/N=C/c1ccc([N+](=O)[O-])cc1)c1ccccc1 | 106 % of control
N#CC1C(C#N)C1C#N (stereo not drawn) | 98 % of control
ClC1CC2C=CC1C2 (stereo not drawn) | 100 % of control
CCCCCCC(C)(O)CCCCCC | 96 % of control
O=c1c2ccccc2sc2c1ccc1ccccc12 | 101 % of control
CC1CCCCC1NC(=O)c1ccccc1 (stereo not drawn) | 98 % of control
Cc1ccc(C(OS(=O)(=O)c2ccc(C)cc2)C(F)(F)F)cc1 (stereo not drawn) | 108 % of control
CC(C)C(Nc1sc([N+](=O)[O-])cc1[N+](=O)[O-])C(=O)O (stereo not drawn) | 102 % of control
CC(=O)OCC(OC(C)=O)C1OC(OC2CCCCC2)C(OC(C)=O)C(OC(C)=O)C1OC(C)=O (stereo not drawn) | 98 % of control
CC(C)(C)C1CCC(S(=O)c2ccccc2)CC1 (stereo not drawn) | 100 % of control
CNc1cc(=O)[nH]cn1 | 100 % of control
Cc1cccc(CC(F)F)c1 | 103 % of control
O=c1[nH]cnc2c1ncn2CCCCCO | 100 % of control
COc1cc2c3c(c1)/C(=N\NC(N)=S)CCN3CCC2 | 105 % of control
CC(CO)CCC(=O)C(C)C1C(=O)CC2[C@H]3CC=C4C[C@H](O)CC[C@@]4(C)C3CC[C@@]12C (stereo partly drawn) | 95 % of control
Cc1ccc(S(=O)(=O)OCC2OCOC(C(O)CI)C2O)cc1 (stereo not drawn) | 92 % of control
O=c1cc(-c2ccccc2)nc2c(Cl)cc(Cl)cn12 | 93 % of control
CCCCCCCCCCCCCCC(=O)Nc1ccccc1 | 89 % of control
CC1(C)COC(c2ccccc2)OC1 | 103 % of control
Nc1nc(N)c2nc3c4ccccc4c4ccccc4c3nc2n1 | 91 % of control
COC(=O)Cc1cc(O)c(C(=O)OC)c(O)c1C(=O)OC | 98 % of control
c1ccc(-c2cscc2-c2ccccc2)cc1 | 96 % of control
CC(=O)Nc1c(F)c(F)c(F)c(F)c1F | 95 % of control
CC1CC(C)(C)N=C(C2CCCC2)O1 (stereo not drawn) | 96 % of control
CC(C)N1C(=O)[N+](C)(C)N=C1[O-] | 101 % of control
CC(=O)Nc1ccc(S(=O)(=O)N(CCO)CCO)cc1 | 102 % of control
